Reported values of pIC50 for individual entries
System: RAW264.7
assayMethodText: Antiinflammatory activity in mouse RAW264.7 cells assessed as inhibition of LPS-induced TNF-alpha production after 6 hrs by ELISA
Format: functional, cell-based
conditionSet: RAW264.7, 6 h
pIC50: −log10 of the molar value.
recordedMetric: pIC50

>  <smilesStr>
O=C1C=CC[C@@H]2[C@H]3CCCN4CCC[C@@H](CN12)[C@@H]34

>  <tgt>
RAW264.7

>  <recordedMetric>
pIC50

>  <resultModifier>
<

>  <observedValue>
3.70

$$$$
>  <smilesStr>
N[C@@H]1CC(=O)N2C[C@@H]3CCCN4CCC[C@@H]([C@H]34)[C@H]2C1

>  <tgt>
RAW264.7

>  <recordedMetric>
pIC50

>  <resultModifier>
<

>  <observedValue>
3.70

$$$$
>  <smilesStr>
CCN[C@@H]1CC(=S)N2C[C@@H]3CCCN4CCC[C@@H]([C@H]34)[C@H]2C1

>  <tgt>
RAW264.7

>  <recordedMetric>
pIC50

>  <resultModifier>
=

>  <observedValue>
4.63

$$$$
>  <smilesStr>
OCCN[C@@H]1CC(=S)N2C[C@@H]3CCCN4CCC[C@@H]([C@H]34)[C@H]2C1

>  <tgt>
RAW264.7

>  <recordedMetric>
pIC50

>  <resultModifier>
=

>  <observedValue>
4.41

$$$$
>  <smilesStr>
OCCCN[C@@H]1CC(=S)N2C[C@@H]3CCCN4CCC[C@@H]([C@H]34)[C@H]2C1

>  <tgt>
RAW264.7

>  <recordedMetric>
pIC50

>  <resultModifier>
=

>  <observedValue>
4.27

$$$$
>  <smilesStr>
CC(C)N[C@@H]1CC(=S)N2C[C@@H]3CCCN4CCC[C@@H]([C@H]34)[C@H]2C1

>  <tgt>
RAW264.7

>  <recordedMetric>
pIC50

>  <resultModifier>
=

>  <observedValue>
4.28

$$$$
>  <smilesStr>
OCCOCCN[C@@H]1CC(=S)N2C[C@@H]3CCCN4CCC[C@@H]([C@H]34)[C@H]2C1

>  <tgt>
RAW264.7

>  <recordedMetric>
pIC50

>  <resultModifier>
=

>  <observedValue>
4.24

$$$$
>  <smilesStr>
S=C1C[C@@H](NCc2ccccc2)C[C@@H]2[C@H]3CCCN4CCC[C@@H](CN12)[C@@H]34

>  <tgt>
RAW264.7

>  <recordedMetric>
pIC50

>  <resultModifier>
=

>  <observedValue>
4.21

$$$$
>  <smilesStr>
S=C1C[C@@H](NCC2CC2)C[C@@H]2[C@H]3CCCN4CCC[C@@H](CN12)[C@@H]34

>  <tgt>
RAW264.7

>  <recordedMetric>
pIC50

>  <resultModifier>
=

>  <observedValue>
3.92

$$$$

---

Test system: RAW264.7
assayMethodText: Antiinflammatory activity in mouse RAW264.7 cells assessed as inhibition of LPS-induced TNF-alpha production after 6 hrs by ELISA
Type: functional, cell-based
conditionSet: RAW264.7, 6 h
pIC50: −log10 of the molar value.

>  <smilesStr>
CCCN[C@@H]1CC(=S)N2C[C@@H]3CCCN4CCC[C@@H]([C@H]34)[C@H]2C1

>  <resultModifier>
=

>  <pIC50>
4.03

$$$$
>  <smilesStr>
C=CCN[C@@H]1CC(=S)N2C[C@@H]3CCCN4CCC[C@@H]([C@H]34)[C@H]2C1

>  <resultModifier>
=

>  <pIC50>
5.03

$$$$
>  <smilesStr>
CN[C@@H]1CC(=S)N2C[C@@H]3CCCN4CCC[C@@H]([C@H]34)[C@H]2C1

>  <resultModifier>
=

>  <pIC50>
4.03

$$$$
>  <smilesStr>
O=C1CCC[C@@H]2[C@H]3CCCN4CCC[C@@H](CN12)[C@@H]34

>  <resultModifier>
<

>  <pIC50>
3.70

$$$$
